# Procedure summary: blockers of RIG-like receptor reporter activation – cell-based, Sendai virus stimulus, luciferase, 10K MLSCN set, TLR/RLR signaling modifier project, primary screen (AID 602276);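 also: firefly luciferase from ISG56 promoter only with Renilla not read in this screen; 0% = Sendai virus plus DMSO and 100% = medium plus DMSO without virus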
# Condition details: HEK293 RL24 IRF3 luciferase reporter, at 10 µM, active compounds read high
Measured attribute: inhibition (%)
Just the number please, in %, no unit attached.

Q. Consider the molecule shown here: CN1CCN(CC(=O)N2c3ccccc3C(C)(c3ccccc3)CC2(C)C)CC1 (stereo unspecified) What is its recorded inhibition?
A. 35.9

Q. Can you check CCN(c1c(C)n(C)n(-c2ccccc2)c1=O)S(C)(=O)=O next?
A. 23.1

Q. What about this molecule? Cc1ccc(OCCN2CCN(C(=O)CCC(=O)Nc3nnc(C)s3)CC2)cc1
A. 9.9

Q. Similarly, OC(COc1ccccc1)CN1C2=NCCCN2c2ccccc21 (stereo unspecified) ?
A. 20

Q. Entry to check: CCS(=O)(=O)NCCc1cc2c(OC)ccc(OC)c2[nH]c1=O
A. 16.6

Q. Please do the same for CC(=O)c1ccc(-n2nnnc2SCC(=O)N2CCc3ccccc3C2)cc1 as well.
A. 2.55

Q. Now try Cc1ccc(CCNC(=O)C2CCN(S(=O)(=O)c3c(C)nn(C)c3C)CC2)cc1 .
A. -5.1

Q. Then what about the molecule CCN(CC)C(=O)COC(=O)c1ccc(O)cc1 ?
A. -1.76

Q. Try this molecule too: CCOC(=O)Cc1csc(/C(=N/O)C(N)=O)n1
A. 13.2

Q. What about O=S(=O)(c1ccc(N2CCN(c3ccc(F)cc3)CC2)cc1)N1CCCC1 ?
A. 10.2

Q. Entry COc1ccc(C(=O)N(CCN2CCOCC2)CC(=O)NC2CCCC2)cc1OC please
A. -8.79

The measurements presented in this section are drawn from PubChem BioAssay.
